Target: Tyrosyl-tRNA synthetase, putative (Trypanosoma cruzi (strain CL Brener)) (UniProt Q4DSP6)
Sequence (Q4DSP6 as listed by the source): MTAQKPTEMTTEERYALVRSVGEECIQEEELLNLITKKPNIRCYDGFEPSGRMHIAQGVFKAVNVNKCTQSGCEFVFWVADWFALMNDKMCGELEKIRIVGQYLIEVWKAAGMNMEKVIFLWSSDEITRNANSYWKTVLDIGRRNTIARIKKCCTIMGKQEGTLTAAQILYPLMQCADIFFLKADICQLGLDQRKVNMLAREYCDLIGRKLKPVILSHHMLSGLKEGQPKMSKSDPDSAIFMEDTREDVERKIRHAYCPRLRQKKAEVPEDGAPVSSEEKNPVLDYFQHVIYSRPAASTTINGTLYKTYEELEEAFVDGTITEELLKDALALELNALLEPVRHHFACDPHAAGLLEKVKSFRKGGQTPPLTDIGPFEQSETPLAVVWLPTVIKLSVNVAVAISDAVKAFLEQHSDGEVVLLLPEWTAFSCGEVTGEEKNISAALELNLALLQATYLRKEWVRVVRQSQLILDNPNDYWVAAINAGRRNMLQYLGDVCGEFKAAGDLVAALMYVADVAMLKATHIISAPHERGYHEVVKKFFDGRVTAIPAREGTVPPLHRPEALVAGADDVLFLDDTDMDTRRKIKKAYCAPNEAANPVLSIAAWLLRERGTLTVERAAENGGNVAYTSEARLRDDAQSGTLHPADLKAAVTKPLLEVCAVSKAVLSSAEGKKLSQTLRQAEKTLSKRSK
Experiment: Trypanosoma cruzi tyrosyl tRNA synthetase (TcYRS) _High Tyrosine SOP
Format: functional
Design: scale not given: in the data most compounds retested in dose-response had high values
Conditions: 30 µM
observedProperty: Percent Effect (%)
Just the number in %, nothing appended.

Examples from the recorded data:
| molecule | Percent Effect, % |
| --- | --- |
| NCC1[C@H]2CN(CCc3ccccc3)C[C@@H]12 (stereo partly specified) | 6.76 |
| Cn1c(=O)n(C)c2cc(C3SCC(=O)Nc4ccsc43)ccc21 (stereo unspecified) | 4.23 |

Read the entry `Cc1cc(CN2C[C@@H]3CCCO[C@@H]3[C@H](Nc3ccccn3)C2)no1` and write its reported Percent Effect.
5.38

Read the entry `Cc1noc(C)c1CN1CC[C@H]2C[C@@H](c3ccncn3)O[C@@H]2C1` and write its reported Percent Effect.
2.16

Read the entry Cc1ccccc1CC(C)NCc1c(C)nn(C)c1N1CCOCC1 (stereo unspecified) and write its reported Percent Effect.
3.16

Read the entry CN1CCCC(Cc2cncc(Br)c2)CC1 (stereo unspecified) and write its reported Percent Effect.
20.4

Read the entry `O=C(COc1cccc(F)c1)N1C[C@@H](O)[C@H](N2CCCC2)C1` and write its reported Percent Effect.
0

Read the entry `CN1CCC2(CC1)C(=O)N(CC1CC1)c1ccccc12` and write its reported Percent Effect.
-0.966

Read the entry `c1cc(CN2CCO[C@H]3[C@H](OCC4CCCC4)CC[C@@H]32)ccn1` and write its reported Percent Effect.
-2.16

Read the entry CN(C)c1ncc2c(n1)C1(CCN(CC3CC3)C1)COC2 (stereo unspecified) and write its reported Percent Effect.
7.29

Read the entry `NC(=O)N1C[C@H]2CN(Cc3nccs3)C[C@H]2C1` and write its reported Percent Effect.
3.24

###

Each record here notes measured Percent Effect.
Target: Aspartate--tRNA(Asp/Asn) ligase (Mycobacterium tuberculosis (strain ATCC 25618 / H37Rv))
Sequence (whole entry): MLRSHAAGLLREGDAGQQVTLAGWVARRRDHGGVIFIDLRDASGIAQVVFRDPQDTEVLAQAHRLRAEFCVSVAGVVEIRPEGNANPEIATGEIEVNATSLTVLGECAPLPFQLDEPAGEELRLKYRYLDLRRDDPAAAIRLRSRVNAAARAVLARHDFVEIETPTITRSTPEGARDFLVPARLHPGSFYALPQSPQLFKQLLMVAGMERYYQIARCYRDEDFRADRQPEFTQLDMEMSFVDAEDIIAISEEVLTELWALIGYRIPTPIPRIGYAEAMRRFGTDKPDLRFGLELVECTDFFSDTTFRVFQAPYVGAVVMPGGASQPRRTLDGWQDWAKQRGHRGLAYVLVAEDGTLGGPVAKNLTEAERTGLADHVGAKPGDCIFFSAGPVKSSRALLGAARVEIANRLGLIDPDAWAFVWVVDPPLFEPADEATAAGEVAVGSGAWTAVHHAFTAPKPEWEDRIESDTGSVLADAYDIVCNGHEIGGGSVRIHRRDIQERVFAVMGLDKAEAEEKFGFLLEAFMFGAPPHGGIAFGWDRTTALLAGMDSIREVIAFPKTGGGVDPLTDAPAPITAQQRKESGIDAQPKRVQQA
Assay: Assay for Asp RNA synthetase-1 from Mycobacterium tuberculosis
Format: functional
Parameters: scale not given: in the data most compounds retested in dose-response had high values
Conditions: 30 µM
Just the number in %, nothing appended.

Examples from the recorded data:
| molecule | endpointUnit | Percent Effect |
| --- | --- | --- |
| CC(Cn1cccn1)NCc1csc(-c2cccs2)n1 (stereo unspecified) | % | -4.5 |
| Cc1nc(CN(C)C2CCN(Cc3nc4ccccc4s3)C2)no1 (stereo unspecified) | % | -0.253 |
| CC(C)NC(=O)[C@H]1C[C@@H]2[C@@H](C1)OCCN2Cc1cnn(C)c1 | % | 2.71 |
| Cc1cc(C)n(-c2cncc(N3CCN(C(=O)C(C)(C)C)CC3)n2)n1 | % | 0.549 |
| Cc1ccc(CNC(=O)NCCCn2nc3ccccn3c2=O)s1 | % | 7.2 |

Read the entry `CCOc1cc(C)nc(N2CCN(C(=O)CC)CC2)n1` and write its reported Percent Effect.
0.408

Read the entry `O=C(COc1coc(CN2CCCCC2)cc1=O)Nc1ccc(Cl)cc1` and write its reported Percent Effect.
3.86

Read the entry Cc1nc(C2CCCN(C(=O)c3sccc3C3CC3)C2)no1 (stereo unspecified) and write its reported Percent Effect.
-0.613

Read the entry `COC(=O)c1cccn1C1CCN(C(=O)c2cc(C)ccc2O)CC1` and write its reported Percent Effect.
3.4

Read the entry CCc1nccn1C1CCCN(C(=O)c2cn3c(C)cccc3n2)C1 (stereo unspecified) and write its reported Percent Effect.
-4.04

Read the entry `Cc1cc(C(=O)O)cc(S(=O)(=O)Nc2ccc3c(c2)OCO3)c1C` and write its reported Percent Effect.
11.6

###

Each record here notes measured Percent Effect.
Target: Aspartate--tRNA(Asp/Asn) ligase (Mycobacterium tuberculosis (strain ATCC 25618 / H37Rv))
Sequence (whole entry): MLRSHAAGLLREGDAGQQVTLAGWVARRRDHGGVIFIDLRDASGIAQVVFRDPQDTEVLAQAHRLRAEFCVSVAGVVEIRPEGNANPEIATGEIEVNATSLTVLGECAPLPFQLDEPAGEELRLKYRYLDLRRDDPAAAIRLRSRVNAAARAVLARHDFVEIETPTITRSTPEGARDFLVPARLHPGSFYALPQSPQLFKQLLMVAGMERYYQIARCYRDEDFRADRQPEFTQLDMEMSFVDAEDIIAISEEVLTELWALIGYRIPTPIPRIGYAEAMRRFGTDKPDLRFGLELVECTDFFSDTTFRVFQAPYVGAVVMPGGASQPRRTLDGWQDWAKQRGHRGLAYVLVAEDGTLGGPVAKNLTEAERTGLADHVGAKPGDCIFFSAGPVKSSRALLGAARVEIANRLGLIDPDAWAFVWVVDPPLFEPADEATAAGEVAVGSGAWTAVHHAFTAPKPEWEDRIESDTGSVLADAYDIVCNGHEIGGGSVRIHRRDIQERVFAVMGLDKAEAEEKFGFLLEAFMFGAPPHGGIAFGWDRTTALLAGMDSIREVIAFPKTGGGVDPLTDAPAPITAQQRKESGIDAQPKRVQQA
Test: Assay for Asp RNA synthetase-1 from Mycobacterium tuberculosis
Assay type: functional
Parameters: scale not given: in the data most compounds retested in dose-response had high values
Conditions: 30 µM
Just the number in %, nothing appended.

Examples from the recorded data:
| molecule | assaySystem | val |
| --- | --- | --- |
| CC(=O)N1CCN(C(=O)CCCc2nc(C(C)C)no2)CC1 | Aspartate--tRNA(Asp/Asn) ligase (Mycobacterium tuberculosis (strain ATCC 25618 / H37Rv)) | 5.17 |
| CCN1CCN(C2CCN(Cc3ncc(C(C)(C)C)o3)CC2)C1=O | Aspartate--tRNA(Asp/Asn) ligase (Mycobacterium tuberculosis (strain ATCC 25618 / H37Rv)) | -3.69 |
| O=C(C1CC=CC1)N1CCC2(CC1)CN(Cc1ccccn1)CCO2 | Aspartate--tRNA(Asp/Asn) ligase (Mycobacterium tuberculosis (strain ATCC 25618 / H37Rv)) | -0.381 |
| CC(NC(=O)CCC(=O)c1cccs1)c1nnc2n1CCCCC2 (stereo unspecified) | Aspartate--tRNA(Asp/Asn) ligase (Mycobacterium tuberculosis (strain ATCC 25618 / H37Rv)) | 3.67 |
| CCc1nc(CN2CCCN(c3nc4ccccc4o3)CC2)no1 | Aspartate--tRNA(Asp/Asn) ligase (Mycobacterium tuberculosis (strain ATCC 25618 / H37Rv)) | 5.41 |

// moving on: another record for Percent Effect
Read the entry `Cc1nn(C)c(C)c1NC(=O)CN1CCc2c(nc(C(C)C)n2C)C1` and write its reported Percent Effect.
-0.413

###

Each record here notes measured Percent Effect.
Target: Aspartate--tRNA(Asp/Asn) ligase (Mycobacterium tuberculosis (strain ATCC 25618 / H37Rv))
Assay: Assay for Asp RNA synthetase-1 from Mycobacterium tuberculosis
Assay type: functional
Design: scale not given: in the data most compounds retested in dose-response had high values
Details: 30 µM
Just the number in %, nothing appended.

| compound | assaySystem | endpointUnit | val |
| --- | --- | --- | --- |
| CN(C)C(=O)COC[C@]12COC[C@H]1CN(Cc1ccoc1)C2 | Aspartate--tRNA(Asp/Asn) ligase (Mycobacterium tuberculosis (strain ATCC 25618 / H37Rv)) | % | -2.38 |

Fill in: Percent Effect on Aspartate--tRNA(Asp/Asn) ligase (Mycobacterium tuberculosis (strain ATCC 25618 / H37Rv)), entry `CCN1CC2(CCC1=O)CCN(C(=O)c1ccc(Cl)cc1O)CC2`
-1.67

Fill in: Percent Effect on Aspartate--tRNA(Asp/Asn) ligase (Mycobacterium tuberculosis (strain ATCC 25618 / H37Rv)), entry Cc1nc(C)n(CC2CCCN(Cc3nnc(-c4ccco4)o3)C2)n1 (stereo unspecified)
-2.25

Fill in: Percent Effect on Aspartate--tRNA(Asp/Asn) ligase (Mycobacterium tuberculosis (strain ATCC 25618 / H37Rv)), entry O=C(CN1CCCCC1C1OCCO1)Nc1ccc(F)c(F)c1 (stereo unspecified)
3.65

Fill in: Percent Effect on Aspartate--tRNA(Asp/Asn) ligase (Mycobacterium tuberculosis (strain ATCC 25618 / H37Rv)), entry `CC(C)COCc1cncc2c1CCN(Cc1cnn(C)c1)C2`
-0.981

Fill in: Percent Effect on Aspartate--tRNA(Asp/Asn) ligase (Mycobacterium tuberculosis (strain ATCC 25618 / H37Rv)), entry `O=C(NCCN1CCCCCC1=O)c1ccn(-c2ccc(F)cc2)n1`
3.8

Ref: ChEMBL document CHEMBL3988442
